Each entry below carries its reported pIC50.
- Target Or Test System: human Arginine Vasopressin Receptor V2 (AVPR2) (Homo sapiens, UniProt P30518)
- Sequence (P30518 whole entry): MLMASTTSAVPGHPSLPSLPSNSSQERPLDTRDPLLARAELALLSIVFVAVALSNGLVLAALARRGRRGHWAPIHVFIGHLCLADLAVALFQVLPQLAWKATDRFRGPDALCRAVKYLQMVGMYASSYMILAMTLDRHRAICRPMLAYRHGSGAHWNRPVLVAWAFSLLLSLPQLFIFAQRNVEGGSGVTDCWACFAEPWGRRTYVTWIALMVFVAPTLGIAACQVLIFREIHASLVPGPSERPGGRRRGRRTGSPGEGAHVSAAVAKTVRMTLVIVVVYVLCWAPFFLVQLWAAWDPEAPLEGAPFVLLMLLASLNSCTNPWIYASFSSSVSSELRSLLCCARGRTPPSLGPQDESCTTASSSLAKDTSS
- Experiment Summary: Vasopressin V2 receptor antagonist assay (TR-FRET cAMP, 1321N1 cells)
pIC50: −log10 of the molar value.

Guide cases for pIC50, answers given:
> print(dat)
                                   compound  reported.value
1  O=C(N1CC2(C1)CN(c1ccc(F)cn1)C2)N1CCOc2cc(Cl)ccc21 [9-7]          ≤ 6.00
2  CC1COc2cc(Cl)c(F)cc2N1C(=O)N1CC2(C1)CN(c1cccnc1)C2 (stereo not shown) [19-6]          ≤ 6.00
3  CC1COc2cc(F)c(F)cc2N1C(=O)N1CC2(C1)CN(c1cccnn1)C2 (stereo not shown) [19-3]          ≤ 6.00
4  Cc1cncc(N2CC3(CN(C(=O)N4c5ccc(F)cc5OCC4C)C3)C2)n1 (single isomer, unassigned) [20-2-A]          ≤ 6.00
5  CC1COc2cc(F)ccc2N1C(=O)N1CC2(C1)CN(c1noc3ccccc13)C2 (stereo not shown) [4-3]          ≤ 6.00
6  Cc1cncc(N2CC3(CN(C(=O)N4c5ccc(F)cc5OCC4C)C3)C2)n1 (stereo not shown) [20-2]          > 7.00

q: Quick one: give measured pIC50 for CCc1cnc(N2CC3(CN(C(=O)N4c5ccc(Cl)cc5OCC4C)C3)C2)nc1 (stereo not shown) [21-9]
a: 6.30 to 7.00

q: Supply reported pIC50 belonging to this compound: O=C(N1CC2(C1)CN(c1cccnn1)C2)N1CCOc2cc(Cl)c(F)cc21 [1-81]
a: ≤ 6.00

q: Query pIC50 for Cc1cc(F)nc(N2CC3(CN(C(=O)N4CCOc5cc(Cl)ccc54)C3)C2)c1 [1-45]
a: ≤ 6.00

* * *

- Target Or Test System: MDR1 (P-glycoprotein) (Homo sapiens, UniProt P08183)
- Construct: host or cells: MDCK (MDR1-MDCK; wild-type MDCK as comparator)
- Sequence (P08183 whole entry): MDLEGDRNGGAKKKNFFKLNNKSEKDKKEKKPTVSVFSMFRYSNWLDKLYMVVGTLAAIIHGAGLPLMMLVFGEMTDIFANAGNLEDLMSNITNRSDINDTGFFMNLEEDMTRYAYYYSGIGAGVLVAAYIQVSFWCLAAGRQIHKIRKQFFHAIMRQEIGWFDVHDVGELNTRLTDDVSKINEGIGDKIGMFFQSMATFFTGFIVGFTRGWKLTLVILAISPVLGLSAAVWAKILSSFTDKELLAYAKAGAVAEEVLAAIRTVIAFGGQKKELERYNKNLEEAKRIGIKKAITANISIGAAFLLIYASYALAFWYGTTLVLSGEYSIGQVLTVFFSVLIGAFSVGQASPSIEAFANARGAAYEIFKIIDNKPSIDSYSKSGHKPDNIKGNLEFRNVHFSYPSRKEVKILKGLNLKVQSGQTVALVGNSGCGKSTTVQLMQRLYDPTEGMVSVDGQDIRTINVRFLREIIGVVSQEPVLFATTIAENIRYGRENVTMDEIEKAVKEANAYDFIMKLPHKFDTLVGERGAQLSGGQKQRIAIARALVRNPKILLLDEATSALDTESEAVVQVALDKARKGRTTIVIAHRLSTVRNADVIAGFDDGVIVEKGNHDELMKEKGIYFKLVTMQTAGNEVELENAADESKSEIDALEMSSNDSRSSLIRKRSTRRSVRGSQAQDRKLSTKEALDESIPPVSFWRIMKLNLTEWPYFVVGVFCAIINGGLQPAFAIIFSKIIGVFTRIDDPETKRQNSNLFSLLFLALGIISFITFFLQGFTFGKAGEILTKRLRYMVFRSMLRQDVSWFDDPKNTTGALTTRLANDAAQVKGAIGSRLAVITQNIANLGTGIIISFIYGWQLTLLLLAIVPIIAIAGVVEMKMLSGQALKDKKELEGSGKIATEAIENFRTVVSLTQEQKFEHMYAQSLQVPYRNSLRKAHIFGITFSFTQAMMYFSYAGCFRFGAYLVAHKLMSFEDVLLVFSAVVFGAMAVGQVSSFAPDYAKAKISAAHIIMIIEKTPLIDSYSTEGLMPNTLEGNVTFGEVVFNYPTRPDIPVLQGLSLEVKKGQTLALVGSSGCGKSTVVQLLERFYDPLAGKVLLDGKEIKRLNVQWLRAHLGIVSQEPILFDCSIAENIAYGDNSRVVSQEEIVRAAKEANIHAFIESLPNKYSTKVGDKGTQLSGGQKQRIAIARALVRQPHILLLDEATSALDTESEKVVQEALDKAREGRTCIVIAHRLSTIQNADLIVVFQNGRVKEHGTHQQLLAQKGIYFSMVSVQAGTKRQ
- Experiment Summary: MDR1-MDCK permeability and efflux assay (Papp, efflux ratio, effective efflux ratio)
- Assay type: in vitro ADME
- Details: dog, MDCK-MDR1, pH 7.4, Papp B>A/Papp A>B, MDR1-MDCK cells; read-out: ER MDR1 (Efflux Ratio)
The reader will find reported efflux ratio at 1 h, 10 μM values listed item by item below.

q: Specify measured efflux ratio at 1 h, 10 μM for Cc1cnc(N2CC3(CN(C(=O)N4c5ccc(Cl)cc5OCC4C)C3)C2)nc1 (single isomer, unassigned) .
a: 1 to 2

q: Report efflux ratio at 1 h, 10 μM for O=C(N1CC2(C1)CN(c1ccc(F)cn1)C2)N1CCOc2cc(F)ccc21
a: 1 to 2

q: Report measured efflux ratio at 1 h, 10 μM; entry is CC1COc2cc(F)ccc2N1C(=O)N1CC2(C1)CN(c1ccc(F)cn1)C2 (single isomer, unassigned)
a: < 1

* * *

- Target Or Test System: human Oxytocin Receptor (hOTR) (Homo sapiens)
- Experiment Summary: Oxytocin receptor (OTR) antagonist assay (FLIPR calcium, CHEM-1-hOTR cells)
pIC50: −log10 of the molar value.
Readings of pIC50 for the listed compounds

> print(dat)
                                   compound  reported.value
1  CC1COc2cc(Cl)c(F)cc2N1C(=O)N1CC2(C1)CN(c1ncccn1)C2 (single isomer, unassigned) [19-2-B]    6.00 to 6.30
2  O=C(N1CC2(C1)CN(c1ccccn1)C2)N1CCC(O)c2cc(Cl)ccc21 (single isomer, unassigned) [13-2-B]    6.00 to 6.30
3  O=C(N1CC2(C1)CN(c1cnccn1)C2)N1CCC(O)c2cc(Cl)ccc21 (stereo not shown) [13-3]          ≤ 6.00

Please find the next compound below.
q: Give the reported pIC50 for this compound. O=C(N1CC2(C1)CN(c1ccccn1)C2)N1CCOCc2cc(Cl)ccc21
a: 6.00 to 6.30

* * *

- Target Or Test System: MDR1 (P-glycoprotein) (Homo sapiens, UniProt P08183)
- Construct: host or cells: MDCK (MDR1-MDCK; wild-type MDCK as comparator)
- Experiment Summary: MDR1-MDCK permeability and efflux assay (Papp, efflux ratio, effective efflux ratio)
- Format: in vitro ADME
- Details: dog, MDCK-MDR1, pH 7.4, ER(MDR1-MDCK)/ER(wild-type MDCK); read-out: EER (Effective Efflux Ratio)
This listing pairs compounds with measured efflux ratio at 1 h, 10 μM.

Some solved cases for reference:
> print(dat)
                                   compound  reported.value
1  CC1COc2cc(Cl)ccc2N1C(=O)N1CC2(C1)CN(c1noc3cccnc13)C2 (single isomer, unassigned) [18-3-B]             < 1
2  O=C(N1CC2(C1)CN(c1ccc(F)cn1)C2)N1CCC(O)c2cc(Cl)ccc21 (single isomer, unassigned) [13-1-A]             > 3
3  O=C(N1CC2(C1)CN(c1ccc(F)cn1)C2)N1CCOc2cc(F)ccc21          1 to 2
4  O=C(N1CC2(C1)CN(c1ccc(F)cn1)C2)N1CCC(O)c2cc(Cl)ccc21 (centres unmarked) [13-1]             > 3
5  Cc1nccnc1N1CC2(CN(C(=O)N3c4ccc(Cl)cc4OCC3C)C2)C1 (centres unmarked) [20-10]             < 1

q: Please report the measured efflux ratio at 1 h, 10 μM for CC1COc2cc(F)ccc2N1C(=O)N1CC2(C1)CN(c1cc(C#N)ccn1)C2 (centres unmarked) [20-3]
a: < 1

q: Input CC1COc2cc(Cl)c(F)cc2N1C(=O)N1CC2(C1)CN(c1cccnn1)C2 (single isomer, unassigned) [19-4-A] , output reported efflux ratio at 1 h, 10 μM.
a: 2 to 3

q: Give the value of efflux ratio at 1 h, 10 μM reported for the following: CC1COc2cc(Cl)ccc2N1C(=O)N1CC2(C1)CN(c1cc(C#N)ccn1)C2 (single isomer, unassigned)
a: 1 to 2

q: For the compound Cc1ccnc(N2CC3(CN(C(=O)N4c5ccc(Cl)cc5OCC4C)C3)C2)n1 (single isomer, unassigned) , give its measured efflux ratio at 1 h, 10 μM value.
a: 1 to 2

q: // Input: COc1ccnc(N2CC3(CN(C(=O)N4c5ccc(Cl)cc5OCC4C)C3)C2)n1 (single isomer, unassigned) [20-9-B] . Output its efflux ratio at 1 h, 10 μM only.
a: 1 to 2

q: Query efflux ratio at 1 h, 10 μM for O=C(N1CC2(C1)CN(c1ccc(F)cn1)C2)N1CCC(F)(F)c2cc(Cl)ccc21
a: 1 to 2

q: Consider the compound CC1COc2cc(F)c(F)cc2N1C(=O)N1CC2(C1)CN(c1ccc(F)cn1)C2 (centres unmarked) and give its recorded efflux ratio at 1 h, 10 μM.
a: 1 to 2

q: Tell me measured efflux ratio at 1 h, 10 μM for O=C(N1CC2(C1)CN(c1cnccn1)C2)N1CCC(O)c2cc(Cl)ccc21 (single isomer, unassigned) please.
a: > 3

q: Give efflux ratio at 1 h, 10 μM for CC1COc2cc(Cl)ccc2N1C(=O)N1CC2(C1)CN(c1ccncn1)C2 (centres unmarked)
a: 2 to 3

q: Let me know recorded efflux ratio at 1 h, 10 μM for O=C(N1CC2(C1)CN(c1cccnc1)C2)N1CCOc2cc(Cl)ccc21 , thanks.
a: 1 to 2

* * *

- Target Or Test System: human Oxytocin Receptor (hOTR) (Homo sapiens, UniProt P30559)
- Sequence (P30559 whole entry): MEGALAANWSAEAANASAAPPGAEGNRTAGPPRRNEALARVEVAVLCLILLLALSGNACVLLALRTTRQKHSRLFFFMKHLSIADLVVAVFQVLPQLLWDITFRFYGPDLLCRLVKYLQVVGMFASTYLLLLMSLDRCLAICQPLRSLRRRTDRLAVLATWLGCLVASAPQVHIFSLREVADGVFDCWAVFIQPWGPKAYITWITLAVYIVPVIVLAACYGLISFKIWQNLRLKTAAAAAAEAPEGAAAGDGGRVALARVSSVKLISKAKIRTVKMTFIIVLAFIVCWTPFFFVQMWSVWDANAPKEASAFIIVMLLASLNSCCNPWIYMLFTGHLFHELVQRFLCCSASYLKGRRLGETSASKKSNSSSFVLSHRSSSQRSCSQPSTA
- Experiment Summary: Oxytocin receptor (OTR) antagonist assay (FLIPR calcium, CHEM-1-hOTR cells)
- Method: This assay was performed in CHEM-1 cells expressing the human Oxytocin Receptor (hOTR) to determine the inhibitory effect of the compounds of the invention on the human Oxytocin receptor. Oxytocin evokes an increase in intracellular calcium in CHEM-1-hOTR cells which is measured in a fluorescence assay on the FLIPR^TETRA using calcium sensitive dyes. […] CHEM-1-hOTR ready was used to assay frozen cells (Eurofins #HTS09ORTA) which are supplied with a proprietary Media Component. […]
Below, each entry is listed with its recorded IC50.

Here are 5 molecules together with their reported answers.
> print(dat)
                                   molecule                     target.or.test.system  reported.value
1  CC1COc2cc(F)ccc2N1C(=O)N1CC2(C1)CN(c1ncccc1F)C2 (single isomer, unassigned) [1-67-A]  human Oxytocin Receptor (hOTR) (Homo sapiens, UniProt P30559)   100 to 500 nM
2  Cc1cncc(N2CC3(CN(C(=O)N4c5ccc(Cl)cc5OCC4C)C3)C2)n1 (centres unmarked)  human Oxytocin Receptor (hOTR) (Homo sapiens, UniProt P30559)        < 100 nM
3  O=C(N1CC2(C1)CN(c1ccc(F)cn1)C2)N1CCC(O)c2cc(Cl)ccc21 (single isomer, unassigned) [13-1-B]  human Oxytocin Receptor (hOTR) (Homo sapiens, UniProt P30559)       ≥ 1000 nM
4  CC1COc2cc(F)ccc2N1C(=O)N1CC2(C1)CN(c1ccccn1)C2 (single isomer, unassigned)  human Oxytocin Receptor (hOTR) (Homo sapiens, UniProt P30559)   100 to 500 nM
5  CC1COc2cc(F)ccc2N1C(=O)N1CC2(C1)CN(c1ncccc1F)C2 (centres unmarked) [1-67]  human Oxytocin Receptor (hOTR) (Homo sapiens, UniProt P30559)   100 to 500 nM

q: Give recorded IC50. CC1COc2cc(F)c(F)cc2N1C(=O)N1CC2(C1)CN(c1ccc(F)cn1)C2 (centres unmarked)
a: 100 to 500 nM

q: Please look at this molecule and report its IC50: CC1COc2cc(Cl)ccc2N1C(=O)N1CC2(C1)CN(c1cccnn1)C2 (centres unmarked) [9-1]
a: 100 to 500 nM

q: # return recorded IC50 for entry Cc1ccnc(N2CC3(CN(C(=O)N4c5ccc(Cl)cc5OCC4C)C3)C2)n1 (single isomer, unassigned) [20-12-B]
a: < 100 nM

q: Retrieve IC50 measured for CC1COc2cc(F)ccc2N1C(=O)N1CC2(C1)CN(c1noc3ccccc13)C2 (single isomer, unassigned) and print it.
a: ≥ 1000 nM

q: Give a short answer stating reported IC50 for CC1CN(C(=O)N2CC3(C2)CN(c2ccc(F)cn2)C3)c2ccc(F)cc2O1 (single isomer, unassigned) .
a: ≥ 1000 nM

All figures here come from patent US12152038B2.
